- Tested System: human recombinant L1196M ALK kinase domain (amino acids 1093-1411) (Homo sapiens, UniProt Q9UM73, L1196M)
- Construct: ALK kinase domain (amino acids 1093-1411); made in house
- Assay Details: L1196M mutant ALK enzyme assay (microfluidic mobility shift)
- Format: biochemical
- Details: ATP 60 μM, 0.5 nM enzyme, competitive inhibition fit; read-out: L1196M ALK enzyme assay (Ki)
The entries below are paired with their reported Ki.
Property Name: Ki (nM)

molecule=CN1Cc2nn(C)c(C#N)c2-c2cnc(N)c(n2)O[C@@H](CF)c2cc(F)ccc2C1=O property_name=Ki limit_qualifier== experimental_result=698
molecule="CC1Oc2nc(cnc2N)-c2c(nn(C)c2C#N)COCc2ccc(F)cc21 (stereo not shown) [Example 104]" property_name=Ki limit_qualifier== experimental_result=57.5
molecule=CN1Cc2nn(C)c(C#N)c2-c2cnc(N)c(n2)OCc2cc(F)ccc2C1=O property_name=Ki limit_qualifier== experimental_result=1.1
molecule=Cn1nc2c(c1C#N)-c1cnc(N)c(c1)OCc1cc(F)ccc1COC2 property_name=Ki limit_qualifier== experimental_result=64.7
molecule=C[C@H]1Oc2cc(cnc2N)-c2c(nn(C)c2C#N)CN(C)Cc2ccc(F)cc21 property_name=Ki limit_qualifier== experimental_result=0.56
molecule="CCN1Cc2c(c(C)nn2C)-c2cnc(N)c(c2)OC(C)c2cc(F)ccc2C1=O (single isomer, unassigned) [Example 9]" property_name=Ki limit_qualifier== experimental_result=1.06
molecule="COc1c2c(nn1C)CN(C)C(=O)c1ccc(F)cc1C(C)Oc1cc-2cnc1N (single isomer, unassigned) [Example 19]" property_name=Ki limit_qualifier== experimental_result=0.9
molecule="CC1Oc2cc(cnc2N)-c2c(nn(C)c2C#N)CN(C)C(=O)c2c(F)cccc21 (single isomer, unassigned) [Example 52]" property_name=Ki limit_qualifier== experimental_result=10.2
molecule="COc1nn(C)c2c1-c1cnc(N)c(c1)OC(C1CC1)c1cc(F)ccc1C(=O)N(C)C2 (single isomer, unassigned) [Example 25]" property_name=Ki limit_qualifier== experimental_result=0.56
molecule=C[C@@H]1Oc2nc(cnc2N)-c2cn(C)nc2CN(C)C(=O)c2ccc(F)cc21 property_name=Ki limit_qualifier== experimental_result=74
molecule="CC1Oc2cc(cnc2N)-c2c(cnn2C)CCCCCOc2ccc(F)cc21 (stereo not shown) [Example 129]" property_name=Ki limit_qualifier=> experimental_result=1500
molecule=CN1Cc2ccccc2-c2cnc(N)c(c2)OCc2cc(F)ccc2C1=O property_name=Ki limit_qualifier== experimental_result=14
molecule=COc1snc2c1-c1cnc(N)c(c1)O[C@H](C)c1cc(F)ccc1C(=O)N(C)C2 property_name=Ki limit_qualifier== experimental_result=0.2
molecule=C[C@H]1Oc2nc(cnc2N)-c2c(nn(CC(F)F)c2C#N)CN(C)C(=O)c2ccc(F)cc21 property_name=Ki limit_qualifier== experimental_result=0.315
molecule="CC1Oc2nc(cnc2N)-c2c(nn(C)c2C#N)COCc2ccc(F)cc21 (single isomer, unassigned) [Example 106]" property_name=Ki limit_qualifier=> experimental_result=3000
molecule=C[C@H]1Oc2nc(cnc2N)-c2cn(C)nc2CN(C)C(=O)c2ccc(F)cc21 property_name=Ki limit_qualifier== experimental_result=0.88

meta.source: patent US8680111B2
